- assayedTarget: UniProt:P50613
- Sequence (P50613 whole entry): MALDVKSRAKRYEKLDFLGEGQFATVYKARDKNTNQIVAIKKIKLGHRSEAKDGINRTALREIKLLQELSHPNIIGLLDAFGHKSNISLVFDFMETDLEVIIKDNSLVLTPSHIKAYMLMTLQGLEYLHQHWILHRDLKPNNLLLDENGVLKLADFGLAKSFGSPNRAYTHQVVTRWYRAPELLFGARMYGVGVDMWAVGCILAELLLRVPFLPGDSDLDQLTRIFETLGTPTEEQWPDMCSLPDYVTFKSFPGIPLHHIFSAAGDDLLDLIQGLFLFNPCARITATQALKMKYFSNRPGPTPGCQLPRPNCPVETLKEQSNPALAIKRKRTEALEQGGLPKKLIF
Calls of active or inactive are those of the source.
Respond using exactly one of the listed classes: active, inactive

Worked examples follow.
>>> df
                                   compound   assayedtarget  assignedlabel
0  Cc1cc(C(=O)NOCCO)c(Nc2ccc(I)cc2F)n(C)c1=O  UniProt:P50613       inactive
1  C=CC(=O)N1CCC[C@H](n2c(=O)n(-c3ccc(Oc4ccccc4)cc3)c3c(N)ncnc32)C1  UniProt:P50613       inactive
2  Cc1cnc(NC(=O)Nc2cc(Br)c(C)cc2OC[C@@H]2CNCCO2)cn1  UniProt:P50613       inactive
3  CC(C)c1cc(CNc2nc(Nc3cc(C4CC4)[nH]n3)cc(N3CCN(C)CC3)n2)on1  UniProt:P50613         active

Next compound, please.
Task: Recorded test call requested for C=CC(=O)Nc1cc2c(Nc3ccc(F)c(Cl)c3)ncnc2cc1C#CC(C)(C)N1CCN(C)CC1 [AV-412 FREE BASE]
Result: inactive
